The reader will find reported MIC values listed item by item below.
# Tested on: Escherichia coli
# protocolDescription: Antimicrobial activity against Escherichia coli O157:H7 incubated overnight by microdilution method
# Format: functional
Square brackets hold non-standard residues; d marks the D form. Peptide text beside a SMILES is read from it. hArg = N=C(N)NCCCC[C@H](N)C(=O)O; Orn = NCCC[C@H](N)C(=O)O; Dab = NCC[C@H](N)C(=O)O
Express it in µM; write the number only.

Examples with their reported MIC follow.
molecule	MIC / µM
N=C(N)NCCC[C@@H](NC(=O)[C@@H](CCCNC(=N)N)NC(=O)[C@@H](Cc1c[nH]c2ccccc12)NC(=O)[C@@H](Cc1c[nH]c2ccccc12)NC(=O)[C@@H](CCCCN)NC(=O)[C@@H](Cc1c[nH]c2ccccc12)NC(=O)[C@@H](Cc1c[nH]c2ccccc12)NC(=O)[C@@H](CCCNC(=N)N)NC(=O)[C@H](N)CCCCN)C(N)=O	1.25
NCCC[C@H](NC(=O)[C@H](CCCN)NC(=O)[C@H](Cc1c[nH]c2ccccc12)NC(=O)[C@H](Cc1c[nH]c2ccccc12)NC(=O)[C@H](CCCN)NC(=O)[C@H](Cc1c[nH]c2ccccc12)NC(=O)[C@H](Cc1c[nH]c2ccccc12)NC(=O)[C@H](CCCN)NC(=O)[C@@H](N)CCCN)C(N)=O (H-[Orn][Orn]WW[Orn]WW[Orn][Orn]-NH2)	2.5
CC[C@H](C)[C@H](NC(=O)[C@H](Cc1c[nH]c2ccccc12)NC(=O)[C@H](CCCNC(=N)N)NC(=O)[C@H](Cc1c[nH]c2ccccc12)NC(=O)[C@H](Cc1c[nH]c2ccccc12)NC(=O)[C@H](CCCCN)NC(=O)[C@@H](N)CCCNC(=N)N)C(=O)N[C@@H](CCCCN)C(=O)N[C@@H](Cc1c[nH]c2ccccc12)C(N)=O (H-RKWWRWIKW-NH2)	1.25

Q: Field: MIC (Escherichia coli). Entry: CC[C@H](C)[C@H](NC(=O)[C@H](Cc1c[nH]c2ccccc12)NC(=O)[C@H](CCN)NC(=O)[C@H](Cc1c[nH]c2ccccc12)NC(=O)[C@H](Cc1c[nH]c2ccccc12)NC(=O)[C@H](CCCCNC(=N)N)NC(=O)[C@@H](N)CCN)C(=O)N[C@@H](CCCCNC(=N)N)C(=O)N[C@@H](Cc1c[nH]c2ccccc12)C(N)=O (H-[Dab][hArg]WW[Dab]WI[hArg]W-NH2)
Result: 1.25

Q: Give recorded MIC with Escherichia coli for the following molecule: N=C(N)NCCCC[C@H](NC(=O)[C@H](CCCCNC(=N)N)NC(=O)[C@H](Cc1c[nH]c2ccccc12)NC(=O)[C@@H](Cc1c[nH]c2ccccc12)NC(=O)[C@@H](CCCN)NC(=O)[C@@H](Cc1c[nH]c2ccccc12)NC(=O)[C@H](Cc1c[nH]c2ccccc12)NC(=O)[C@H](CCCCNC(=N)N)NC(=O)[C@H](N)CCCN)C(N)=O
Result: 2.5

Q: Record N=C(N)NCCCC[C@H](NC(=O)[C@@H](CCCCNC(=N)N)NC(=O)[C@H](Cc1c[nH]c2ccccc12)NC(=O)[C@H](Cc1c[nH]c2ccccc12)NC(=O)[C@H](CCCCNC(=N)N)NC(=O)[C@H](Cc1c[nH]c2ccccc12)NC(=O)[C@@H](Cc1c[nH]c2ccccc12)NC(=O)[C@@H](CCCCNC(=N)N)NC(=O)[C@@H](N)CCCCNC(=N)N)C(N)=O : what is its MIC with Escherichia coli?
Result: 2.5

====

# protocolDescription: Stability of compound assessed as bovine trypsin mediated degradation at 2 to 5 mM after 2 hrs by HPLC/MS analysis
# Format: ADME, Bos taurus
# testConditions: cattle, isolated protein, 5000 µM
Square brackets hold non-standard residues; d marks the D form. Peptide text beside a SMILES is read from it. Orn = NCCC[C@H](N)C(=O)O

compound	Stability
N=C(N)NCCCC[C@H](NC(=O)[C@H](CCCCNC(=N)N)NC(=O)[C@H](Cc1c[nH]c2ccccc12)NC(=O)[C@@H](Cc1c[nH]c2ccccc12)NC(=O)[C@@H](CCCN)NC(=O)[C@@H](Cc1c[nH]c2ccccc12)NC(=O)[C@H](Cc1c[nH]c2ccccc12)NC(=O)[C@H](CCCCNC(=N)N)NC(=O)[C@H](N)CCCN)C(N)=O	Unstable
NCCC[C@H](NC(=O)[C@H](CCCN)NC(=O)[C@H](Cc1c[nH]c2ccccc12)NC(=O)[C@H](Cc1c[nH]c2ccccc12)NC(=O)[C@H](CCCN)NC(=O)[C@H](Cc1c[nH]c2ccccc12)NC(=O)[C@H](Cc1c[nH]c2ccccc12)NC(=O)[C@H](CCCN)NC(=O)[C@@H](N)CCCN)C(N)=O (H-[Orn][Orn]WW[Orn]WW[Orn][Orn]-NH2)	Unstable

====

# protocolDescription: Stability of compound assessed as bovine trypsin mediated degradation at 2 to 5 mM after 2 hrs by HPLC/MS analysis
# Format: ADME, Bos taurus
# testConditions: cattle, isolated protein, 5000 µM
Square brackets hold non-standard residues; d marks the D form. Peptide text beside a SMILES is read from it. hArg = N=C(N)NCCCC[C@H](N)C(=O)O; Dab = NCC[C@H](N)C(=O)O

compound	Stability
N=C(N)NCCC[C@H](NC(=O)[C@H](Cc1c[nH]c2ccccc12)NC(=O)[C@H](Cc1c[nH]c2ccccc12)NC(=O)[C@H](CCCCN)NC(=O)[C@@H](N)CCCNC(=N)N)C(=O)N[C@@H](Cc1c[nH]c2ccccc12)C(=O)N[C@@H](Cc1c[nH]c2ccccc12)C(=O)N[C@@H](CCCCN)C(=O)N[C@@H](CCCCN)C(N)=O (H-RKWWRWWKK-NH2)	Unstable
N=C(N)NCCCC[C@H](NC(=O)[C@H](CCCCNC(=N)N)NC(=O)[C@H](Cc1c[nH]c2ccccc12)NC(=O)[C@@H](Cc1c[nH]c2ccccc12)NC(=O)[C@@H](CCN)NC(=O)[C@@H](Cc1c[nH]c2ccccc12)NC(=O)[C@H](Cc1c[nH]c2ccccc12)NC(=O)[C@@H](CCCCNC(=N)N)NC(=O)[C@@H](N)CCN)C(N)=O	Unstable
CC[C@H](C)[C@H](NC(=O)[C@H](Cc1c[nH]c2ccccc12)NC(=O)[C@H](CCN)NC(=O)[C@H](Cc1c[nH]c2ccccc12)NC(=O)[C@H](Cc1c[nH]c2ccccc12)NC(=O)[C@H](CCCCNC(=N)N)NC(=O)[C@@H](N)CCN)C(=O)N[C@@H](CCCCNC(=N)N)C(=O)N[C@@H](Cc1c[nH]c2ccccc12)C(N)=O (H-[Dab][hArg]WW[Dab]WI[hArg]W-NH2)	Unstable
